# credit: patent US20060018902A1

Molecular target: T1, soluble EpoR (EposR) (human, UniProt P19235 25-250, limits assumed)
T1 construct: also called soluble recombinant human EpoR
T1 sequence (looked up): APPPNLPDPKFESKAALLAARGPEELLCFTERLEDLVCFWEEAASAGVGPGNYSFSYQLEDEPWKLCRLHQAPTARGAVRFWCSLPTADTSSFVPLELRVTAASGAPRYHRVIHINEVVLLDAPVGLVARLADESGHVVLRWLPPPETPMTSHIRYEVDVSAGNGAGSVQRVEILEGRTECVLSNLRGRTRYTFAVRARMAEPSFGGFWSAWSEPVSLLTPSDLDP
Assay: SPR (BIAcore), IgG2/K sub-variant of Ab12.6, EposR as test antigen
measureName: koff
Number first, unit second.

What the record says about Ab12.122 (antibody, IgG2, V domains shown) VH: QVQLQESGPGLVKPSETLSLTCTVSGASISSYYWSWIRQPPGKGLEWIGYIYGEGSTNYNPSLKSRVTISVDTSKNQFSLKLRSVTAADTAVYYCARERLGIGDYWGQGTLVTVSS VL: DIQLTQSPSSLSASVGDRVTITCRASQGIRNDLGWYQQKPGKAPKRLIYAASSLQSGVPSRFSGSGSGTEFTLTISSLQPEDFATYYCLQHNTYPPTFGQGTKVEIK : koff is 0.0049 s⁻¹

response.value for Ab12.120 (antibody, IgG2, V domains shown) VH: QVQLQESGPGLVKPSETLSLTCTVSGASISSYYWSWIRQPPGKGLEWIGYIYYEGSTNYNPSLKSRVTISVDTSKNQFSLKLRSVTAADTAVYYCARERLGIGDYWGQGTLVTVSS VL: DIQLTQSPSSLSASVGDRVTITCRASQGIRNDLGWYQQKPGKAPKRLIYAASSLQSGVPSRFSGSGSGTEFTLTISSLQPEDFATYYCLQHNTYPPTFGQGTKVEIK (field: koff) = 0.002 s⁻¹

The reported koff of the binder Ab12.121 (antibody, IgG2, V domains shown) VH: QVQLQESGPGLVKPSETLSLTCTVSGASISSYYWSWIRQPPGKGLEWIGYIGGSGSTNYNPSLKSRVTISVDTSKNQFSLKLRSVTAADTAVYYCARERLGIGDYWGQGTLVTVSS VL: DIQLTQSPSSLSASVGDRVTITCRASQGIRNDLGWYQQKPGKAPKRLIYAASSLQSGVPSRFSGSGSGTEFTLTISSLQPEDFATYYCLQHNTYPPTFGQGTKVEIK was 0.0063 s⁻¹
